All values here come from patent US4983597A.

# System under test: HMG-CoA synthase (Rattus norvegicus)
# Construct: The livers from male Charles River CD rats (225-350 g) were homogenized; from tissue; host or cells: rat liver (male Charles River CD rats), 100,000 x g supernatant, ammonium sulfate and DEAE-52 fraction
# Experimental details: HMG-CoA Synthase Inhibition Assay
# Assay type: biochemical
# Condition summary: Table VI; rat liver enzyme, 1-[14C]-acetyl-CoA incorporation
# Procedure: The intrinisic HMG-CoA synthase inhibition activity of the compounds of this invention is measured by the standard in vitro protocol described below: […] Enzyme protein (ca. 24 mg) was added to a solution containing […] Tris-HCl (pH 8.0), 11.7 μM MgCl2, 1.17 μM ethylenediaminetetraacetic acid (EDTA), 0.58 μM dithiothreitol, and the indicated concentrations of the test compound (added as a 2 mg/ml solution in dimethylsulfoxide). […] Percent inhibition is calculated by the formula: [formula] […]
Readout label: IC50 (nM)
Answer with a number only, understood to be in nM.

Sample records with IC50:
[[record]]
compound = "Cc1ccc(S(=O)(=O)N2C(=O)C(C)(C)C2C(Cc2ccccc2)OC(=O)c2ccccc2)cc1 (stereo not shown) [Table VI b]"
test_value = 400

[[record]]
compound = "Cc1ccc(S(=O)(=O)N2C(=O)C(C)(C)C2C2OC2c2ccccc2)cc1 (stereo not shown) [Table VI d]"
test_value = 110

[[record]]
compound = "Cc1ccc(S(=O)(=O)N2C(=O)C(C)(C)C2C=Cc2ccccc2)cc1 (stereo not shown) [Table VI c]"
test_value = 680


Prompt line: Dear colleague, I am looking for the recorded IC50 of the following compound: Cc1ccc(S(=O)(=O)N2C(=O)C(C)(C)C2CCc2ccccc2)cc1 (stereo not shown) [Table VI a]
Response line: 1800

====

# System under test: HMG-CoA synthase (Rattus norvegicus)
# Construct: The livers from male Charles River CD rats (225-350 g) were homogenized; from tissue; host or cells: rat liver (male Charles River CD rats), 100,000 x g supernatant, ammonium sulfate and DEAE-52 fraction
# Experimental details: HMG-CoA Synthase Inhibition Assay
# Assay type: biochemical
# Condition summary: Table II; rat liver enzyme, 1-[14C]-acetyl-CoA incorporation
Listing: pIC50 of selected compounds
Recall that pIC50 is obtained by taking minus log10 of the concentration measured in molar.

[[record]]
compound = "CC[C@@H]1C(=O)N(S(=O)(=O)c2ccc(C)cc2)[C@@H]1COC(=O)[C@H](OC)c1ccccc1"
system_under_test = "HMG-CoA synthase (Rattus norvegicus)"
readout_label = "pIC50"
test_value = 7.74

[[record]]
compound = "CCOc1ccc(CC(=O)OC[C@H]2[C@@H](CC)C(=O)N2S(=O)(=O)c2ccc(C)cc2)cc1 (relative stereo)"
system_under_test = "HMG-CoA synthase (Rattus norvegicus)"
readout_label = "pIC50"
test_value = 7.66

[[record]]
compound = "CC[C@H]1C(=O)N(S(=O)(=O)c2ccc(C)cc2)[C@H]1COC(=O)NC1CCCCC1 (relative stereo)"
system_under_test = "HMG-CoA synthase (Rattus norvegicus)"
readout_label = "pIC50"
test_value = 7.27

[[record]]
compound = "CCOc1ccc(CC(=O)OC[C@@H]2[C@H](CC)C(=O)N2S(=O)(=O)c2ccc(C)cc2)cc1C (relative stereo)"
system_under_test = "HMG-CoA synthase (Rattus norvegicus)"
readout_label = "pIC50"
test_value = 8.68

[[record]]
compound = "CC[C@@H]1C(=O)N(S(=O)(=O)c2ccc(C)cc2)[C@@H]1COC(=O)Cc1ccccn1 (relative stereo)"
system_under_test = "HMG-CoA synthase (Rattus norvegicus)"
readout_label = "pIC50"
test_value = 8.00

[[record]]
compound = "CC[C@@H]1C(=O)N(S(=O)(=O)c2ccc(C)cc2)[C@@H]1COC(=O)/C=C/c1ccc(OC)cc1 [Table II k]"
system_under_test = "HMG-CoA synthase (Rattus norvegicus)"
readout_label = "pIC50"
test_value = 7.96


Prompt line: Any idea what pIC50 was measured for CC[C@H]1C(=O)N(S(=O)(=O)c2ccc(C)cc2)[C@H]1COC(=O)Nc1ccc(C(F)(F)F)cc1 (relative stereo) ?
Response line: 6.59

Prompt line: Here is the next compound: CC[C@@H]1C(=O)N(S(=O)(=O)c2ccc(C)cc2)[C@@H]1COC(=O)/C=C/c1ccco1 (relative stereo)
Response line: 6.60

Prompt line: Also check CC[C@H]1C(=O)N(S(=O)(=O)c2ccc(C)cc2)[C@H]1COC(=O)Cc1ccc(OC)c(OC)c1 (relative stereo)
Response line: 7.52

Prompt line: And then CC[C@H]1C(=O)N(S(=O)(=O)c2ccc(C)cc2)[C@H]1COC(=O)Cc1cc(OC)c(OC)c(OC)c1 (relative stereo) , what is it?
Response line: 7.70

Prompt line: Try CO[C@@H](C(=O)OC[C@@H]1CC(=O)N1S(=O)(=O)c1ccc(C)cc1)c1ccccc1 next.
Response line: 7.30

Prompt line: Now the compound CC[C@@H]1C(=O)N(S(=O)(=O)c2ccc(C)cc2)[C@@H]1COC(=O)Cc1ccco1 (relative stereo)
Response line: 5.62

Prompt line: Also CC[C@H]1C(=O)N(S(=O)(=O)c2ccc(C)cc2)[C@H]1COC(=O)CSc1ccccc1 (relative stereo) ?
Response line: 7.38

====

# System under test: HMG-CoA synthase (Rattus norvegicus, UniProt P17425)
# Construct: The livers from male Charles River CD rats (225-350 g) were homogenized; from tissue; host or cells: rat liver (male Charles River CD rats), 100,000 x g supernatant, ammonium sulfate and DEAE-52 fraction
# Sequence (P17425 whole entry): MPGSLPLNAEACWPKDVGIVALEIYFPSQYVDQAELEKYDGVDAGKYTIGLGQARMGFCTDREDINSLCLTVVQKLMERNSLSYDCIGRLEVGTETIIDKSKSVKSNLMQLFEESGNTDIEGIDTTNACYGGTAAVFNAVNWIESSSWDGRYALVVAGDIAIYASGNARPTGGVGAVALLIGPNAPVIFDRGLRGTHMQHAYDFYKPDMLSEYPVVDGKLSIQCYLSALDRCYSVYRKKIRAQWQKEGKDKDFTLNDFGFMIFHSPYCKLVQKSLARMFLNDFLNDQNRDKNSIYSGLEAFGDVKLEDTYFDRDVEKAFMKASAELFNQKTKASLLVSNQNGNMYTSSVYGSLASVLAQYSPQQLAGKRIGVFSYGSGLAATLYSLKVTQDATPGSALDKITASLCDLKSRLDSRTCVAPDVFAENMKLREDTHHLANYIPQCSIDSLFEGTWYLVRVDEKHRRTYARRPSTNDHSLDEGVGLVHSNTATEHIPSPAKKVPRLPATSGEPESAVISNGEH
# Experimental details: HMG-CoA Synthase Inhibition Assay
# Format: biochemical
# Condition summary: Table I; rat liver enzyme, 1-[14C]-acetyl-CoA incorporation
Readout label: pIC50
Lab note: report pIC50 as minus log10 of the concentration in molar units, number only.

[[record]]
compound = "CC[C@@H]1C(=O)N(S(=O)(=O)c2ccc(C)cc2)[C@@H]1COC(=O)c1ccc2ccccc2n1 (relative stereo)"
system_under_test = "HMG-CoA synthase (Rattus norvegicus, UniProt P17425)"
readout_label = "pIC50"
test_value = 7.68

[[record]]
compound = "CC[C@@H]1C(=O)N(S(=O)(=O)c2ccc(C)cc2)[C@@H]1COC(=O)c1ccnc2ccccc12 (relative stereo)"
system_under_test = "HMG-CoA synthase (Rattus norvegicus, UniProt P17425)"
readout_label = "pIC50"
test_value = 7.60

[[record]]
compound = "CC[C@@H]1C(=O)N(S(=O)(=O)c2ccc(C)cc2)[C@@H]1COC(=O)c1cccnc1Oc1ccccc1 (relative stereo)"
system_under_test = "HMG-CoA synthase (Rattus norvegicus, UniProt P17425)"
readout_label = "pIC50"
test_value = 7.48

[[record]]
compound = "CC[C@@H]1C(=O)N(S(=O)(=O)c2ccc(C)cc2)[C@@H]1COC(=O)c1ccc([N+](=O)[O-])cc1 (relative stereo)"
system_under_test = "HMG-CoA synthase (Rattus norvegicus, UniProt P17425)"
readout_label = "pIC50"
test_value = 7.55

[[record]]
compound = "CC[C@@H]1C(=O)N(S(=O)(=O)c2ccc(C)cc2)[C@@H]1COC(=O)c1ccc(OCc2ccccc2)cc1 (relative stereo)"
system_under_test = "HMG-CoA synthase (Rattus norvegicus, UniProt P17425)"
readout_label = "pIC50"
test_value = 7.40

[[record]]
compound = "CC[C@@H]1C(=O)N(S(=O)(=O)c2ccc(C)cc2)[C@@H]1COC(=O)c1ccc(NS(C)(=O)=O)cc1 (relative stereo)"
system_under_test = "HMG-CoA synthase (Rattus norvegicus, UniProt P17425)"
readout_label = "pIC50"
test_value = 7.80

[[record]]
compound = "CC[C@@H]1C(=O)N(S(=O)(=O)c2ccc(C)cc2)[C@@H]1COC(=O)c1ccc(OC)cc1 (relative stereo) [Table I cc]"
system_under_test = "HMG-CoA synthase (Rattus norvegicus, UniProt P17425)"
readout_label = "pIC50"
test_value = 7.52

[[record]]
compound = "CC[C@@H]1C(=O)N(S(=O)(=O)c2ccc(C)cc2)[C@@H]1COC(=O)c1ccc(C(=O)OC(c2ccccc2)c2ccccc2)cc1 (relative stereo)"
system_under_test = "HMG-CoA synthase (Rattus norvegicus, UniProt P17425)"
readout_label = "pIC50"
test_value = 7.21


Lab note: next compound to report on.
Prompt line: Looking for the measured pIC50 of CC[C@@H]1C(=O)N(S(=O)(=O)c2ccc(C)cc2)[C@@H]1COC(=O)c1ccnnc1 (relative stereo) , can you help?
Response line: 7.09

====

# System under test: HMG-CoA synthase (Rattus norvegicus, UniProt P17425)
# Construct: The livers from male Charles River CD rats (225-350 g) were homogenized; from tissue; host or cells: rat liver (male Charles River CD rats), 100,000 x g supernatant, ammonium sulfate and DEAE-52 fraction
# Experimental details: HMG-CoA Synthase Inhibition Assay
# Assay type: biochemical
# Condition summary: Table I; rat liver enzyme, 1-[14C]-acetyl-CoA incorporation
# Procedure: The intrinisic HMG-CoA synthase inhibition activity of the compounds of this invention is measured by the standard in vitro protocol described below: […] Enzyme protein (ca. 24 mg) was added to a solution containing […] Tris-HCl (pH 8.0), 11.7 μM MgCl2, 1.17 μM ethylenediaminetetraacetic acid (EDTA), 0.58 μM dithiothreitol, and the indicated concentrations of the test compound (added as a 2 mg/ml solution in dimethylsulfoxide). […] Percent inhibition is calculated by the formula: [formula] […]
Listed next: entries and their corresponding IC50.
Respond numerically; units are nM and should not be typed.

[[record]]
molecule = "CC[C@@H]1C(=O)N(S(=O)(=O)c2ccc(C)cc2)[C@@H]1COC(=O)c1ccncc1 (relative stereo) [Table I d]"
readout_label = "IC50"
test_value = 62

[[record]]
molecule = "CC[C@@H]1C(=O)N(S(=O)(=O)c2ccc(C)cc2)[C@@H]1COC(=O)c1cc2ccccc2o1 (relative stereo) [Table I ff]"
readout_label = "IC50"
test_value = 33

[[record]]
molecule = "CC[C@@H]1C(=O)N(S(=O)(=O)c2ccc(C)cc2)[C@@H]1COC(=O)c1ccccc1 (relative stereo) [Table I dd]"
readout_label = "IC50"
test_value = 110

[[record]]
molecule = "CC[C@@H]1C(=O)N(S(=O)(=O)c2ccc(C)cc2)[C@@H]1COC(=O)c1cccnc1 (relative stereo) [Table I bb]"
readout_label = "IC50"
test_value = 64

[[record]]
molecule = "COc1ccc(C(=O)OC[C@H]2[C@H](CO)C(=O)N2S(=O)(=O)c2ccc(C)cc2)cc1 (relative stereo) [Table I ss]"
readout_label = "IC50"
test_value = 150

[[record]]
molecule = "CC[C@H]1C(=O)N(S(=O)(=O)c2ccc(C)cc2)[C@H]1COC(=O)c1ccc(OC)cc1 [Table I j]"
readout_label = "IC50"
test_value = 200

[[record]]
molecule = "CC[C@@H]1C(=O)N(S(=O)(=O)c2ccc(C)cc2)[C@@H]1COC(=O)c1ccsc1 (relative stereo) [Table I a]"
readout_label = "IC50"
test_value = 710

[[record]]
molecule = "CC[C@@H]1C(=O)N(S(=O)(=O)c2ccc(C)cc2)[C@@H]1COC(=O)c1ccccc1NS(C)(=O)=O (relative stereo) [Table I l]"
readout_label = "IC50"
test_value = 31

[[record]]
molecule = "CC[C@@H]1C(=O)N(S(=O)(=O)c2ccc(C)cc2)[C@@H]1COC(=O)c1ccccc1[N+](=O)[O-] (relative stereo) [Table I c]"
readout_label = "IC50"
test_value = 23

[[record]]
molecule = "CC[C@@H]1C(=O)N(S(=O)(=O)c2ccc(C)cc2)[C@@H]1COC(=O)c1ccc(OC)c(OC)n1 (relative stereo) [Table I pp]"
readout_label = "IC50"
test_value = 89


Prompt line: Entry CCCCNC(=O)c1ccc(C(=O)OC[C@@H]2[C@H](CC)C(=O)N2S(=O)(=O)c2ccc(C)cc2)cc1 (relative stereo) [Table I jj] has what IC50?
Response line: 20

Prompt line: Now try CC[C@@H]1C(=O)N(S(=O)(=O)c2ccc(C)cc2)[C@@H]1COC(=O)c1cccc(N)c1 (relative stereo) [Table I v] .
Response line: 45

Prompt line: Also, CC[C@@H]1C(=O)N(S(=O)(=O)c2ccc(C)cc2)[C@@H]1COC(=O)c1csc(OC)n1 (relative stereo) [Table I qq] please.
Response line: 45

Prompt line: Please answer likewise for COc1ccc(C(=O)OC[C@@H]2[C@H](CO)C(=O)N2S(=O)(=O)c2ccc(C)cc2)cc1 (relative stereo) [Table I aa]
Response line: 180
